Hello, the source for this data is patent US20250312469A1, in case you need it.

assay.summary: in vitro
condition.parameters: both, human, s9, CLint (intrinsic clearance), human liver S9 fraction; bound
quantity: microsomal CLint at 0.5 μM

molecule="CCC1(O)C(=O)OCc2c1cc1n(c2=O)Cc2cc3cc4c(cc3nc2-1)OCO4 (stereo not shown)" quantity="microsomal CLint at 0.5 μM" observed_value="< 11.6 µL/min/mg"

###

target.entity: hERG (Homo sapiens, UniProt Q12809)
Sequence (Q12809 whole entry): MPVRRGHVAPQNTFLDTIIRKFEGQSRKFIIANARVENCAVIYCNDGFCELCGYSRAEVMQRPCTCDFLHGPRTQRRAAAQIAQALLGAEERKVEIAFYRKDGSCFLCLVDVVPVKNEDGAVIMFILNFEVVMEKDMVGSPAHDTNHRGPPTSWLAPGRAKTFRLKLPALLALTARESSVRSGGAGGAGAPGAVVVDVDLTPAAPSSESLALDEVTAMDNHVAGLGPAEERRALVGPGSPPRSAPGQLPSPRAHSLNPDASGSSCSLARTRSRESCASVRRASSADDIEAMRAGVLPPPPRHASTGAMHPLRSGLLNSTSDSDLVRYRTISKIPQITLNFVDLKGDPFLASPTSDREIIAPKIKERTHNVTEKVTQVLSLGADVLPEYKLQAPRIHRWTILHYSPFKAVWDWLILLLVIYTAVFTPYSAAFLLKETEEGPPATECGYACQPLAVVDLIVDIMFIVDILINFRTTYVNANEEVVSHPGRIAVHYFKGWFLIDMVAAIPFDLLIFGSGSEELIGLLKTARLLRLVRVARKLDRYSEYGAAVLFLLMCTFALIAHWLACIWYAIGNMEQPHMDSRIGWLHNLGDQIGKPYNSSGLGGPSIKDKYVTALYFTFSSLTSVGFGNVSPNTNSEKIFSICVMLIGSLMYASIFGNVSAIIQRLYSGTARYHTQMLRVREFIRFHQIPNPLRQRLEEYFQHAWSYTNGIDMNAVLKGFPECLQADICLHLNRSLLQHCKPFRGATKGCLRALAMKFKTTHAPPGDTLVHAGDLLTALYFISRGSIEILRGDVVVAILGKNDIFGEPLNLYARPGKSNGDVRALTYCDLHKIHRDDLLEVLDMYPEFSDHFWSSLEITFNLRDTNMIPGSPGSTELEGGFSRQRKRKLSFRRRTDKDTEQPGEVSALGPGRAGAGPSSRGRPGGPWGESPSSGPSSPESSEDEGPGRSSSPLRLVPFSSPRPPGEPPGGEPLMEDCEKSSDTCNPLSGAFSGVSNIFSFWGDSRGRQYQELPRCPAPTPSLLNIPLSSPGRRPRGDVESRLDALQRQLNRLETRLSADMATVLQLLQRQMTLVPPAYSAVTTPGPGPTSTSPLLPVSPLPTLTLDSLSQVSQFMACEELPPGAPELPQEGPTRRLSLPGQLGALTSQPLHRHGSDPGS
assay.summary: in vitro
condition.parameters: human, pH 7.2
quantity: inhibition at 300 s, 0.3 µM (%)

molecule="CCC1(O)C(=O)OCc2c1cc1n(c2=O)Cc2cc3cc4c(cc3nc2-1)OCO4 (stereo not shown)" observed_value=-2.9
